Endpoint summary: IC50, system: Human Factor XIIa (Homo sapiens), multiple sources combined.

Previously resolved entries follow.
molecule	target	IC50
CN1CCC(CN2CCc3c(C(=O)NCc4ccccc4)nn(-c4cccc(Cl)c4)c3C2=O)CC1	Human Factor XIIa (Homo sapiens)	10000 to 40000 nM
Cc1cc(CNC(=O)c2nn(-c3cccc(Cl)c3)c3c2CCN(c2ccc4c(c2)CN(CCO)CC4)C3=O)[nH]n1	Human Factor XIIa (Homo sapiens)	10 to 100 nM

# input # lookup: IC50 of Nc1nccc2c(N3CC4(CC(COc5ccc6nccn6c5)C4)C3)cccc12
# output 10000 to 40000 nM

# input Now try O=C(NCc1ccccc1)c1nn(-c2cccc(Cl)c2)c2c1CCN(c1cccc(CN3CCCC3)c1)C2=O .
# output 300 to 1000 nM

# input Now try NCCN1CCc2ccc(N3CCc4c(C(=O)NCC5CC5)nn(-c5cccc(Cl)c5)c4C3=O)cc2C1 .
# output 100 to 300 nM

# input Now try CN1CCC(CNc2ccc(CNc3cncc4[nH]ccc34)cn2)CC1 .
# output 3000 to 10000 nM

# input Now try CN1CCC(CNc2ccc(CNc3cc4ccnc(N)c4cn3)cn2)CC1 .
# output 1000 to 3000 nM

* * *

Endpoint summary: IC50, system: Human Factor XIIa (Homo sapiens, UniProt P00748), multiple sources combined.

Previously resolved entries follow.
molecule	IC50
Cc1cc(N2CCc3c(C(=O)NCC4CC4)nn(-c4cccc(Cl)c4)c3C2=O)cc2c1CCN(C)C2	300 to 1000 nM
O=C(NCC1CC1)c1nn(-c2cccc(Cl)c2)c2c1CCN(c1ccc3c(c1)CN(C1CCCC1O)CC3)C2=O (stereo not shown)	300 to 1000 nM
CCN1CCc2ccc(N3CCc4c(C(=O)NCc5cnccc5C)nn(-c5cccc(Cl)c5)c4C3=O)cc2C1	10 to 100 nM
COCC1c2nnc(C(F)(F)F)n2CCN1c1cc(C)c(CNc2cccc3c(N)nccc23)cn1 (single isomer, unassigned)	3000 to 10000 nM
CCN1CCc2ccc(N3CCc4c(C(=O)NCc5cc(C)n(C)n5)nn(-c5cccc(Cl)c5)c4C3=O)cc2C1=O	10 to 100 nM
Nc1nccc2c(NCC34CC(COc5ncccn5)(CCO3)C4)cccc12	10000 to 40000 nM

# input # lookup: IC50 of CN1CCC(CNc2ccc(CNc3ccnc4[nH]ccc34)cn2)CC1
# output 1000 to 3000 nM

# input Now try CN1CCc2ccc(N3CCc4c(C(=O)NCC5CC5)nn(-c5cccc(CN)c5)c4C3=O)cc2C1=O .
# output 100 to 300 nM

# input Now try Cc1ccncc1CNC(=O)c1nn(-c2cccc(Cl)c2)c2c1CCN(c1cccc(CN3CCCCC3)c1)C2=O .
# output 10 to 100 nM

# input Now try CN1CCc2ccc(N3CCc4c(COCC(=O)O)nn(-c5cccc(Cl)c5)c4C3=O)cc2C1=O .
# output 1000 to 3000 nM

* * *

Endpoint summary: pIC50, system: Human Factor XIIa (Homo sapiens), multiple sources combined.
pIC50: −log10 of the molar value.

Previously resolved entries follow.
compound	target	pIC50
CN1CCC(OCc2ccc(CNc3ccc4c(N)nccc4c3)c(F)c2)CC12COC2 (stereo not drawn)	Human Factor XIIa (Homo sapiens)	5.52 to 6.00
O=C(NCc1ccn[nH]1)c1nn(-c2cccc(Cl)c2)c2c1CCN(c1ccc3c(c1)CN(CCO)CC3)C2=O	Human Factor XIIa (Homo sapiens)	7.00 to 8.00
O=C(NCC1CC1)c1nn(-c2cccc(Cl)c2)c2c1CCN(c1ccc3c(c1)CN(C1COC1)CC3)C2=O	Human Factor XIIa (Homo sapiens)	6.00 to 6.52
O=C(NCC1CC1)c1nn(-c2cccc(Cl)c2)c2c1CCN(c1cc(F)c3c(c1)CN(CCO)CC3)C2=O	Human Factor XIIa (Homo sapiens)	6.52 to 7.00
CN1CC(C2CN(c3cc(CNc4ccc5c(N)nccc5c4)ccn3)C2)C1	Human Factor XIIa (Homo sapiens)	5.52 to 6.00
Cc1cccc(CNC(=O)c2nn(-c3cccc(Cl)c3)c3c2CCN(c2ccc4c(c2)CN(CCO)CC4)C3=O)n1	Human Factor XIIa (Homo sapiens)	7.00 to 8.00
Cc1ccncc1CNC(=O)c1nn(-c2cccc(Cl)c2)c2c1CCN(c1ccc3c(c1)C(=O)N(CCO)CCC3)C2=O	Human Factor XIIa (Homo sapiens)	7.00 to 8.00
O=C1CC[C@H](CN2CCc3ccc(N4CCc5c(C(=O)NCC6CC6)nn(-c6cccc(Cl)c6)c5C4=O)cc3C2)N1	Human Factor XIIa (Homo sapiens)	6.00 to 6.52
N#CCN1CCc2ccc(N3CCc4c(C(=O)NCC5CC5)nn(-c5cccc(Cl)c5)c4C3=O)cc2C1	Human Factor XIIa (Homo sapiens)	5.52 to 6.00
CCN1CCc2ccc(N3CCc4c(C(=O)N[C@H](CO)c5ccccc5)nn(-c5cccc(Cl)c5)c4C3=O)cc2C1	Human Factor XIIa (Homo sapiens)	7.00 to 8.00

# input # lookup: pIC50 of O=C(NCC1CC1)c1nn(-c2cccc(Cl)c2)c2c1CCN(c1cc3c(cn1)CCN(CCO)C3)C2=O
# output 6.52 to 7.00

# input Now try Cc1cc2nccn2cc1OCC12COC(CNc3cccc4c(N)nccc34)(C1)C2 .
# output 7.00 to 8.00

# input Now try Cc1cc(N2CCn3c(nnc3C(F)(F)F)C2)cnc1CNc1cccc2c(N)nccc12 .
# output 7.00 to 8.00

# input Now try Nc1nccc2cc(NCc3ccnc(-c4cccc(CN5CCCC5)c4)c3)ccc12 .
# output 5.52 to 6.00

# input Now try Cn1ccc(OCC23COC(CNc4cccc5c(N)nccc45)(C2)C3)cc1=O .
# output 6.52 to 7.00
